target: BurrH Variant3 (RAG1) (Burkholderia rhizoxinica); assay: ITC; conditions: FA and ITC: 25 mM HEPES pH 8, 150 mM NaCl, 0.2 mM TCEP, 298 K, SPR: HBS-EP+ (10 mM HEPES pH 7.4, 150 mM NaCl, 3 mM EDTA, 0.05% P20)

BIOPOLYMER_SEQUENCE | Kd, µM
TTCAGTGTTTATGGTTACTTATA (double strand) [V3 target] | 0.03
